# test_system: cereblon (CRBN)—DNA damage protein 1 (DDB1) complex (Homo sapiens)
# Construct: encoding amino acid residues 1 to 442 (Uniprot Q96SW2); hexahistidine (N); thrombin cleavage site (N)
# Sequence (Q96SW2 with tags, fused parts or gaps): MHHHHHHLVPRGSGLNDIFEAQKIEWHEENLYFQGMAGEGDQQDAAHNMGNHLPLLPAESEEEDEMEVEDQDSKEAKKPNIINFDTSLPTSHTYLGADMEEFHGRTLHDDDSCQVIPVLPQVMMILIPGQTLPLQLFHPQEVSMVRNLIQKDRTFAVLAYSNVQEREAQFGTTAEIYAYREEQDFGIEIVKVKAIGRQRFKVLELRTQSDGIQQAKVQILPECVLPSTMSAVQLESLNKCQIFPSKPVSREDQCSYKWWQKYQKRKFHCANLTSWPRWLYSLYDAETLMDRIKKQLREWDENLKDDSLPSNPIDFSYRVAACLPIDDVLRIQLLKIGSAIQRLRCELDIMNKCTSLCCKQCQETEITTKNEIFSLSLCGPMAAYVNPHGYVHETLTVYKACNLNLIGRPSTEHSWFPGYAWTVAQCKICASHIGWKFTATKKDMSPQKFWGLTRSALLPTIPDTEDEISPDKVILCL
# protocol: Cereblon HTRF binding assay
Please use yes for IC50 under 0.4 µM and no for everything else, ties included.

Q) Strictly below 0.4 µM: is that where IC50 of O=C1CCN(c2ccc3cc[nH]c3c2F)C(=O)N1 sits?
A) yes

Q) Strictly below 0.4 µM: is that where IC50 of O=C1CCN(c2ccc3c(c2)CCNC3)C(=O)N1 sits?
A) no

Q) Strictly below 0.4 µM: is that where IC50 of CN1CCC(c2cc3c(N4CCC(=O)NC4=O)cccc3[nH]2)CC1 sits?
A) yes

Q) Strictly below 0.4 µM: is that where IC50 of O=C(O)Cc1c[nH]c2cc(N3CCC(=O)NC3=O)ccc12 sits?
A) no

Q) Strictly below 0.4 µM: is that where IC50 of O=C1CCN(c2cc3[nH]ccc3cc2F)C(=O)N1 sits?
A) no
